Would you mind telling me the reported selectivity ratio of each entry?
assay: Selectivity index, ratio of TC50 for african green monkey Vero cells to IC50 for Coxsackievirus B2 infected in african green monkey Vero cells; assay type: toxicity, cell-based; settings: read-out: Selectivity Index

Sample records with selectivity ratio:
COC(=O)C/C=C\[C@@H]1[C@H]2CCCN3CCC[C@@H](CN1S(=O)(=O)c1cccc(C#N)c1)[C@@H]23; 38.9
COC(=O)CCC[C@@H]1[C@H]2CCCN3CCC[C@@H](CN1S(=O)(=O)c1cccc(C(F)(F)F)c1)[C@@H]23; 16.7

### Prompt For the compound O=[N+]([O-])c1ccccc1S(=O)(=O)N1C[C@@H]2CCCN3CCC[C@@H]([C@H]23)[C@H]1/C=C\CCO , give its measured selectivity ratio value.
### Response 117
